molecular target: human CD33 L134A (human, UniProt P20138 18-364); assay: flow cytometry on HEK293-T, alanine scan
Sequence (P20138 18-364 L134A limits assumed): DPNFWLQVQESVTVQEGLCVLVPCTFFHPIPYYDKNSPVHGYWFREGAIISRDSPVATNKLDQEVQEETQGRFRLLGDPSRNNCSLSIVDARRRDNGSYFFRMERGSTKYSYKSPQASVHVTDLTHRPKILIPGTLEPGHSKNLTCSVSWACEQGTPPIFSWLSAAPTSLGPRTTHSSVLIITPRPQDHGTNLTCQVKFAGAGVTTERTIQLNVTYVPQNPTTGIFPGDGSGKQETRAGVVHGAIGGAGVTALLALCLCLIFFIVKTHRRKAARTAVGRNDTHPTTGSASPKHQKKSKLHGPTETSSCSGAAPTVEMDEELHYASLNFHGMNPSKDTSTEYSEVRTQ
Reported Mean % WT Binding is given for each of the following binders.
Just the number please, in % WT binding, no unit attached.

Worked set:
binder | measured.endpoint | reported
Refmab #4 (antibody, V domains shown, The alanine scan used IgG or Fab) VH: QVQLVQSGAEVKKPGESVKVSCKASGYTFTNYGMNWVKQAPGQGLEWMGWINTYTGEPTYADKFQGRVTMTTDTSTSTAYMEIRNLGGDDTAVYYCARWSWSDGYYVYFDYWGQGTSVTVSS VL: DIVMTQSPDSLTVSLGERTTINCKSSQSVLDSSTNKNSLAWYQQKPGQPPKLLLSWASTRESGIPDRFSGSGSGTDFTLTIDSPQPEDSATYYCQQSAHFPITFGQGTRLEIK | Mean % WT Binding | 82.2
Refmab #3 (antibody, V domains shown, The alanine scan used IgG or Fab) VH: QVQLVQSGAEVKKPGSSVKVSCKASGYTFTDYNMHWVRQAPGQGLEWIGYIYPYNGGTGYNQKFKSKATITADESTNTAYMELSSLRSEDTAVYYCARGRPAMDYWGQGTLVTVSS VL: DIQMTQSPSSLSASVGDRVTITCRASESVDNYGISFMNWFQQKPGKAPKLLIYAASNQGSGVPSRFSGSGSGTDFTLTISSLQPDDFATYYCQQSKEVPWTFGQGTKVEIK | Mean % WT Binding | 81.4
Refmab #2 (antibody, V domains shown, The alanine scan used IgG or Fab) VH: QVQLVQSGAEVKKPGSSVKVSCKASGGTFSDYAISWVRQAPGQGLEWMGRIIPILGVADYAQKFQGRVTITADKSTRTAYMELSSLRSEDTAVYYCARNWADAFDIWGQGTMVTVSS VL: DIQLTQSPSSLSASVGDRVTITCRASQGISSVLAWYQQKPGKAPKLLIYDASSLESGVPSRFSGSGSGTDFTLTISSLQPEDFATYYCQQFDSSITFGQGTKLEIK | Mean % WT Binding | 99.6

Query: Look up and report measured Mean % WT Binding for this entry: Refmab #1 (antibody, V domains shown, The alanine scan used IgG or Fab; also called hP67.6) VH: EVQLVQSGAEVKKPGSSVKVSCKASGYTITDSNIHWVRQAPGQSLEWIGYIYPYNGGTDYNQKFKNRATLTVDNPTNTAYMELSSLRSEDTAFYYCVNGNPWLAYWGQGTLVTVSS VL: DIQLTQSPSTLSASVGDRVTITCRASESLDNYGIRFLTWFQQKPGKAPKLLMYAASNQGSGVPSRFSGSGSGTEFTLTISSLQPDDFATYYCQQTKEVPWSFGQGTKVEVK
Result: 95.4
